pIC50: −log10 of the molar value.
pIC50, VPS34 (Homo sapiens (Human), UniProt Q8NEB9), per-entry values.
Observable: pIC50

>  <Given smiles>
Cc1cnc(NC(=O)C2CC2)cc1-c1cc(N2CCN(C(=O)c3cnn(C)c3)C[C@@H]2C)[nH]c(=O)c1

>  <Observable>
pIC50

>  <Value observed>
6.00 to 6.30

$$$$
>  <Given smiles>
Cc1cnc(NC(=O)c2cnn(C)c2)cc1-c1cc(N2CCCC[C@@H]2C(F)(F)F)[nH]c(=O)c1

>  <Observable>
pIC50

>  <Value observed>
6.00 to 6.30

$$$$
>  <Given smiles>
Cc1cnc(NC(=O)CC2CN(C)C2)cc1-c1cc(N2CCCC[C@@H]2C(F)(F)F)[nH]c(=O)c1

>  <Observable>
pIC50

>  <Value observed>
6.30 to 7.00

$$$$
>  <Given smiles>
COC(=O)Nc1cc(-c2cc(N3CCN(S(=O)(=O)CCN(C)C)C[C@@H]3C)[nH]c(=O)c2)c(C)cn1

>  <Observable>
pIC50

>  <Value observed>
≥ 7.00

$$$$
>  <Given smiles>
CCS(=O)(=O)N1CCN(c2cc(-c3cc(NC(=O)C4CC4)ncc3C)cc(=O)[nH]2)[C@@H](C)C1

>  <Observable>
pIC50

>  <Value observed>
6.30 to 7.00

$$$$
>  <Given smiles>
COC(=O)Nc1cc(-c2cc(N3CCOC[C@H]3C(F)(F)F)[nH]c(=O)c2)c(C)cn1

>  <Observable>
pIC50

>  <Value observed>
5.00 to 6.00

$$$$
>  <Given smiles>
Cc1cnc(NC(=O)c2cnn(C)c2)cc1-c1cc(-c2cccnc2C(F)(F)F)[nH]c(=O)c1

>  <Observable>
pIC50

>  <Value observed>
5.00 to 6.00

$$$$

----------
Molecular target: PI3K (p110α (H1047R)/p85α) (Homo sapiens (Human), UniProt P42336, H1047R)
Sequence (P42336 whole entry H1047R): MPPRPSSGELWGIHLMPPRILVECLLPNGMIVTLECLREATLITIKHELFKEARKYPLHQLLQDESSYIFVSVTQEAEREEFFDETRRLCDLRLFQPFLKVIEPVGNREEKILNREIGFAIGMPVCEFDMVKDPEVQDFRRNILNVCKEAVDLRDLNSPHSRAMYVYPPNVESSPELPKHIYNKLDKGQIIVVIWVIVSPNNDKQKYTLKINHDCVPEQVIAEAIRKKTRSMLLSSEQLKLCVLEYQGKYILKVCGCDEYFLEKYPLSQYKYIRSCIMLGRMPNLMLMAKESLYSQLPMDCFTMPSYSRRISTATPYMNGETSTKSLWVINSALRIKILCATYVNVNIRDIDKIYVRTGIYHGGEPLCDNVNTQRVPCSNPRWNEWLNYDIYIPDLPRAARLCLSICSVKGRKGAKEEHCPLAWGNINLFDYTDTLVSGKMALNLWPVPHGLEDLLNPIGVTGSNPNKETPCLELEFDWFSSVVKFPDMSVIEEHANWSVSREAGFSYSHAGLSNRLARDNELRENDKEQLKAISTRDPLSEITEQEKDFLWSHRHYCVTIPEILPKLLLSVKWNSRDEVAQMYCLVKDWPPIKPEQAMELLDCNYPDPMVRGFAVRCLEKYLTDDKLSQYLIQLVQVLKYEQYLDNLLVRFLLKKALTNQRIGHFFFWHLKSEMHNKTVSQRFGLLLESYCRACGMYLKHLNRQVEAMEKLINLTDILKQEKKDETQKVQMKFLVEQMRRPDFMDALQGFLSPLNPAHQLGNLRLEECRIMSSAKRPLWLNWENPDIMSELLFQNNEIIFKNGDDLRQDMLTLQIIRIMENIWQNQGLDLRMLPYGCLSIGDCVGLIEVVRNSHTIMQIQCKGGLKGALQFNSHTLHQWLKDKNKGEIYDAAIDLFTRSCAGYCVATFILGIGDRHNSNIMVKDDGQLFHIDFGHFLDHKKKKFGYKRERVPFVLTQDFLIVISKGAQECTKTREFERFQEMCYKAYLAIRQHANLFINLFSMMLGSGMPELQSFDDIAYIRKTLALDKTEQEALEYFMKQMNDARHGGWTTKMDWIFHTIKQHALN
Sequence (P27986 whole entry partner): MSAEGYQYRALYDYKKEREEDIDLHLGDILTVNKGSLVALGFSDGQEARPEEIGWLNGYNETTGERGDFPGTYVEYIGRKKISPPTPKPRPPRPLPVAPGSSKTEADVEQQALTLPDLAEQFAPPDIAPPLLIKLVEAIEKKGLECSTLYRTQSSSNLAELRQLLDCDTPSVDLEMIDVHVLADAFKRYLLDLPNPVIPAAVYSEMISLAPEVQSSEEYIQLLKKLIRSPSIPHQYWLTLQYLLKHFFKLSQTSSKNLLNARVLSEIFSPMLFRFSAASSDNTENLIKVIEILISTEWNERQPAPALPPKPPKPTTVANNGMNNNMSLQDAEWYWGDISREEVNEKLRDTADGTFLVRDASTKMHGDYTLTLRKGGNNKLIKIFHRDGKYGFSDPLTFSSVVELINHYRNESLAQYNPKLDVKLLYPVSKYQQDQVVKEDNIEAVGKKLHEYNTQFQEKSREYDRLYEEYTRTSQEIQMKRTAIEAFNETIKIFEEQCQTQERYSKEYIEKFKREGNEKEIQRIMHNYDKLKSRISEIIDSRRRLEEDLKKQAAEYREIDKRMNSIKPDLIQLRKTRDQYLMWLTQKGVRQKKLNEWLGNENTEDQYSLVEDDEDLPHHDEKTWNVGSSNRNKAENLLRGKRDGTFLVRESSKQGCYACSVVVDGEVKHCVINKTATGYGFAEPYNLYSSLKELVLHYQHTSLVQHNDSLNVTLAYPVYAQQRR
Assay: Lipid kinase selectivity panel (Reaction Biology)
Type: biochemical
Details: 1 μM compound, single dose duplicates, 10 μM ATP; read-out: Percent inhibition relative to DMSO control, PI3K (p110α (H1047R)/p85α)

>  <Compound>
COC(=O)Nc1ncc(C)c(-c2cc(-c3cccnc3C(F)(F)F)[nH]c(=O)c2)n1 [Example 6]

>  <inhibition at 1 µM>
19%

$$$$
>  <Compound>
CNCC(=O)Nc1cc(-c2cc(N3CCCC[C@@H]3C(F)(F)F)[nH]c(=O)c2)c(C)cn1 [Example 24]

>  <inhibition at 1 µM>
-17%

$$$$
>  <Compound>
Cc1nccc(Nc2cc(-c3cc(N4CCCC[C@@H]4C(F)(F)F)[nH]c(=O)c3)c(C)cn2)n1 [Example 77]

>  <inhibition at 1 µM>
22%

$$$$

----------
Target: PI3Kb (p110β/p85α) (Homo sapiens (Human), UniProt P42338)
Sequence (P42338 whole entry, species assumed, one chain of several): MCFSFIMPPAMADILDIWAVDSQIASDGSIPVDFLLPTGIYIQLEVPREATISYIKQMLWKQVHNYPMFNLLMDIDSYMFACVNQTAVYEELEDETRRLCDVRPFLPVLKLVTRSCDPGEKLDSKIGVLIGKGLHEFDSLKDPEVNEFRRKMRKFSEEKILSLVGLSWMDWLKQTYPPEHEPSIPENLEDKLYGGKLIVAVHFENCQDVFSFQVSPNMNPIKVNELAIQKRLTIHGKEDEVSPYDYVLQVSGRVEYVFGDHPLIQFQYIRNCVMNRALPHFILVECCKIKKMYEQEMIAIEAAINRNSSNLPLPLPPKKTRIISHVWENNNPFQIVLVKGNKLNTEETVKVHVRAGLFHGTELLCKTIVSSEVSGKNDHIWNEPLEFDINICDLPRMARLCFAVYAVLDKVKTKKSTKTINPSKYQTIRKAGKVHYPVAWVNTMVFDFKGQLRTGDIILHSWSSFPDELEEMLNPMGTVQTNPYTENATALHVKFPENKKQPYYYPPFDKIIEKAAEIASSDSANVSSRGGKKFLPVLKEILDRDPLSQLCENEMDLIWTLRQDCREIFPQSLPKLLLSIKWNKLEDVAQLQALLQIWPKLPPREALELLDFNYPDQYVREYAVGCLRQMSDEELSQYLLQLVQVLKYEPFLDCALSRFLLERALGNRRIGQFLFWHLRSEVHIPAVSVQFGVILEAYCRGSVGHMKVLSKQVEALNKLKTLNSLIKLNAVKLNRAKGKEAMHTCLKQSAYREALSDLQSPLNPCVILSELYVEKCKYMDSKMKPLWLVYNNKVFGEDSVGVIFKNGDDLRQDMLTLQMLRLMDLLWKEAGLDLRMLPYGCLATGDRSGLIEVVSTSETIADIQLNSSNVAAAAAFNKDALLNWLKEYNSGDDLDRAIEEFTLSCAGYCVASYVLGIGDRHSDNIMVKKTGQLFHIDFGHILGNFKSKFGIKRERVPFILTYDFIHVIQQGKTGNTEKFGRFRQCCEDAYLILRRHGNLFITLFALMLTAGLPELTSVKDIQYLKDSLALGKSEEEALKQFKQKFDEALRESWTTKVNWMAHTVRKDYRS
Assay: Lipid kinase selectivity panel (Reaction Biology)
Format: biochemical
Conditions: 1 μM compound, single dose duplicates, 10 μM ATP; read-out: Percent inhibition relative to DMSO control, PI3Kb (p110β/p85α)
Measured inhibition at 1 µM by item

>  <Given smiles>
COC(=O)Nc1cc(-c2cc(N3CCCC[C@@H]3C(F)(F)F)[nH]c(=O)c2)c(CF)cn1

>  <Unit text>
%

>  <inhibition at 1 µM>
-3

$$$$
>  <Given smiles>
Cc1nccc(Nc2cc(-c3cc(-c4cccnc4C(F)(F)F)[nH]c(=O)c3)c(C)cn2)n1

>  <Unit text>
%

>  <inhibition at 1 µM>
18

$$$$
>  <Given smiles>
COC(=O)Nc1cc(-c2cc(N3CCCC[C@@H]3C(F)(F)F)[nH]c(=O)c2)c(C)cn1

>  <Unit text>
%

>  <inhibition at 1 µM>
13

$$$$
>  <Given smiles>
Cc1cnc(NC(=O)OC2CC3(CNC3)C2)cc1-c1cc(N2CCCC[C@@H]2C(F)(F)F)[nH]c(=O)c1

>  <Unit text>
%

>  <inhibition at 1 µM>
0

$$$$
>  <Given smiles>
COC(=O)Nc1ncc(C)c(-c2cc(-c3cccnc3C(F)(F)F)[nH]c(=O)c2)n1

>  <Unit text>
%

>  <inhibition at 1 µM>
-14

$$$$
>  <Given smiles>
COC(=O)Nc1cc(-c2cc(-c3cccnc3C(F)(F)F)[nH]c(=O)c2)c(N)cn1

>  <Unit text>
%

>  <inhibition at 1 µM>
-4

$$$$
>  <Given smiles>
Cc1cnc(NC(=O)CC2CNC2)cc1-c1cc(N2CCCC[C@@H]2C(F)(F)F)[nH]c(=O)c1

>  <Unit text>
%

>  <inhibition at 1 µM>
-1

$$$$
>  <Given smiles>
COC(=O)Nc1cc(-c2cc(N3CCCC[C@@H]3C(F)(F)F)[nH]c(=O)c2)c(N)cn1

>  <Unit text>
%

>  <inhibition at 1 µM>
-9

$$$$

----------
Target: VPS34 (Homo sapiens (Human), UniProt Q8NEB9)
Sequence (Q8NEB9 other isoform, or with tags, fused parts or gaps): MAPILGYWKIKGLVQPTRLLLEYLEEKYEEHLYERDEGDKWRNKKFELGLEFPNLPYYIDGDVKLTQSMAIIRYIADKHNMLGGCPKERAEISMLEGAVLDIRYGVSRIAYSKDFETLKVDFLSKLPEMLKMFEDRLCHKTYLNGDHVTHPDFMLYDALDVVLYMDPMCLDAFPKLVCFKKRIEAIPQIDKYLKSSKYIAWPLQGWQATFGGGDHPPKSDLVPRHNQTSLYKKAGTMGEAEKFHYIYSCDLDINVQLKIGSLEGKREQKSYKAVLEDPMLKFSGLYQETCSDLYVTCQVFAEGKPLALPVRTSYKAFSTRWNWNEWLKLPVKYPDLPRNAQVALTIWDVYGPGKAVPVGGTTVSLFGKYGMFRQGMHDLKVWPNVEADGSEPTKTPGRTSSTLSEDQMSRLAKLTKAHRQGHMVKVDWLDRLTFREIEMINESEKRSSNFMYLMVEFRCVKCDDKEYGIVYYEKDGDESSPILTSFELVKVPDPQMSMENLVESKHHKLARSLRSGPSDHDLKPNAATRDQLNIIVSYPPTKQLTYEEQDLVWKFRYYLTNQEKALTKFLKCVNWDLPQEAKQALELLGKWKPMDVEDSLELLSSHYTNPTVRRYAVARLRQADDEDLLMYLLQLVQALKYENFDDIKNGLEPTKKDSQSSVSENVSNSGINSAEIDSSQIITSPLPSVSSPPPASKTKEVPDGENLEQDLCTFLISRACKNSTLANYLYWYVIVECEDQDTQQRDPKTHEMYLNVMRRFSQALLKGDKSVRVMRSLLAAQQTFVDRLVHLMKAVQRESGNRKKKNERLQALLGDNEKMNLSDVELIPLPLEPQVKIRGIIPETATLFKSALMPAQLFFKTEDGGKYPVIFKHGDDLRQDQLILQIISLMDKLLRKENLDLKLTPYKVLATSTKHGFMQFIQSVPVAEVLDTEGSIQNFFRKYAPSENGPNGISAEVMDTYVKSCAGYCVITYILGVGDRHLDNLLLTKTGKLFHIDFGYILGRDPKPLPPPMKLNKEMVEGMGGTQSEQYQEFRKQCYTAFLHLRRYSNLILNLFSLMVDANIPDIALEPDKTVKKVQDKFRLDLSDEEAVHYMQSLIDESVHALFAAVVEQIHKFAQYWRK
Test: Biochemical Assay for VPS34 (ADP-Glo kinase activity assay)
Conditions: 25 nM VPS34, 1 mM ATP, 1-hour incubation at 37° C.; read-out: VPS34 (Inhibition of biochemical activity of VPS34, IC50)
Observable: IC50

>  <Compound>
Cc1cnccc1-c1cc(N2CCCC[C@@H]2C(F)(F)F)[nH]c(=O)c1 [Example 13]

>  <Observable>
IC50

>  <Value observed>
1000 to 10000 nM

$$$$
>  <Compound>
COCCS(=O)(=O)N1CCN(c2cc(-c3cc(NC(=O)C4CC4)ncc3C)cc(=O)[nH]2)[C@@H](C)C1 [Example 83]

>  <Observable>
IC50

>  <Value observed>
100 to 500 nM

$$$$
>  <Compound>
Cc1cncc(Nc2cc(-c3cc(N4CCCC[C@@H]4C(F)(F)F)[nH]c(=O)c3)c(C)cn2)n1 [Example 2]

>  <Observable>
IC50

>  <Value observed>
≤ 100 nM

$$$$
>  <Compound>
Cc1cnc(NC(=O)OC2CC2)cc1-c1cc(N2CCCC[C@@H]2C(F)(F)F)[nH]c(=O)c1 [Example 30]

>  <Observable>
IC50

>  <Value observed>
100 to 500 nM

$$$$
>  <Compound>
COC(=O)Nc1ncc(C)c(-c2cc(N3CCCC[C@@H]3C(F)(F)F)[nH]c(=O)c2)n1 [Example 8]

>  <Observable>
IC50

>  <Value observed>
100 to 500 nM

$$$$
>  <Compound>
COc1ccc(C(=O)N2CCN(c3cc(-c4cc(NC(=O)C5CC5)ncc4C)cc(=O)[nH]3)[C@@H](C)C2)cc1 [Example 92]

>  <Observable>
IC50

>  <Value observed>
1000 to 10000 nM

$$$$
>  <Compound>
Cc1cnc(Nc2ncn(C)n2)cc1-c1cc(N2CCCC[C@@H]2C(F)(F)F)[nH]c(=O)c1 [Example 42]

>  <Observable>
IC50

>  <Value observed>
≤ 100 nM

$$$$

----------
Biological target: UniProtKB Q8NEB9

>  <Compound>
CC(=O)Nc1cc(-c2cc(-c3cccnc3C(F)(F)F)[nH]c(=O)c2)c(C)cn1

>  <Test system>
UniProtKB Q8NEB9

>  <IC50>
100 to 500 nM

$$$$
>  <Compound>
CNCC(=O)Nc1cc(-c2cc(N3CCCC[C@@H]3C(F)(F)F)[nH]c(=O)c2)c(C)cn1

>  <Test system>
UniProtKB Q8NEB9

>  <IC50>
100 to 500 nM

$$$$
>  <Compound>
Cc1cnc(NC(=O)CCN2CCCC2)cc1-c1cc(N2CCCC[C@@H]2C(F)(F)F)[nH]c(=O)c1

>  <Test system>
UniProtKB Q8NEB9

>  <IC50>
100 to 500 nM

$$$$
>  <Compound>
Cc1cnc(NC(=O)C2CC2)cc1-c1cc(N2CCN(S(=O)(=O)CC3CC3)C[C@@H]2C)[nH]c(=O)c1

>  <Test system>
UniProtKB Q8NEB9

>  <IC50>
≤ 100 nM

$$$$
>  <Compound>
Cc1cnc(NC(=O)CC2CNCC2(F)F)cc1-c1cc(N2CCCC[C@@H]2C(F)(F)F)[nH]c(=O)c1 (stereo partly shown)

>  <Test system>
UniProtKB Q8NEB9

>  <IC50>
100 to 500 nM

$$$$
>  <Compound>
COC(=O)Nc1ncc(C)c(-c2cc(-c3cccnc3C(F)(F)F)[nH]c(=O)c2)n1

>  <Test system>
UniProtKB Q8NEB9

>  <IC50>
500 to 1000 nM

$$$$
>  <Compound>
CNCCC(=O)N1CCN(c2cc(-c3cc(NC(=O)OC)ncc3C)cc(=O)[nH]2)[C@@H](C(F)(F)F)C1

>  <Test system>
UniProtKB Q8NEB9

>  <IC50>
1000 to 10000 nM

$$$$

Data origin, for the record: patent US20250236609A1
